test system: Bacillus subtilis; experiment: cleaved RNA product abundance (RNA/gDNA barcode ratio) relative to median wild-type variant (ratio to wild type); higher = more accumulation of the downstream cleavage product; settings: experiment (reporter, strain, medium): exp 8a: truncated aprE reporter, strain BJT201 with 2% xylose (RNase J1 expressed); cleavage site: glnRA (positions -5 to +31 mutated)
Use 0.4 as the dividing line for cleaved RNA product abundance, with the line itself on the class 1 side and lower values as class 0.

# RECORD_SEQUENCE, CLASSIFICATION
rows = [
    ("CGACATGTCCCGCTTCTTTCATTAATCCGTTAGCAACTGTTTTAATATATACATTTACCTTTTAAGAGGAGGAAT", "class 1"),
    ("CGACATGTCCCGCTTCTTTCATTAATCCGTTAGCAACTGTTTAACTATATACATTTACCTTTTAAGAGGAGGAAT", "class 0"),
    ("CGACATGTCCCGCTTCTTTCATTATTCCGTAAGCAACTGTTTTGCTATATACATTTACCTTTTAAGAGGAGGAAT", "class 1"),
    ("CGACATGTCCCGCTTCTTTCATTAATCCATTAGCAATTGTTTTGCTATATACATTTACCTTTTAAGAGGAGGAAT", "class 1"),
    ("CGACATGTCCCGCTTCTTTCATTAATCCGTTAGCAACTGATTTGCCATATACATTTACCTTTTAAGAGGAGGAAT", "class 0"),
    ("CGACATGTCCCGCTTCTTTCATTAATCCGTAATCAACTGTTTTGCTATATACATTTACCTTTTAAGAGGAGGAAT", "class 0"),
    ("CGACATGTCCCGCTTCTTTCATTAATCCGTTAACATCTGTTTTGCTATATACATTTACCTTTTAAGAGGAGGAAT", "class 0"),
]

----------
tested on: Bacillus subtilis; test: cleaved RNA product abundance (RNA/gDNA barcode ratio) relative to median wild-type variant (ratio to wild type); higher = more accumulation of the downstream cleavage product; conditions: experiment (reporter, strain, medium): exp 4a: truncated aprE reporter, strain BJT201 with 2% xylose (RNase J1 expressed); cleavage site: cggR-gapA (positions -7 to +36 mutated)
READOUT_NAME: cleaved RNA product abundance

# RECORD_SEQUENCE, OBS_VALUE
rows = [
    ("ACAGACGAAGGAGCCGCAAAAAAGTTATTAAGGGATGAATAATCCCTCAATATAAATTTCTCTCACTTATTTAAA", 1.04),
    ("ACAGACGAAGGAGCCGCAAAGAAATTATTAAGGGATGAATAATCCATCAATATAAATATCTCTCACTTATTTAAA", 0.201),
    ("ACAGACGAAGGAGCCGCAATGAAGTTATTAAGGGATGAATAAACCCTCAATATAAATATCTCTCACTTATTTAAA", 0.454),
    ("ACAGACGAAGGAGCCGCAAAGAAGTCATTAATGGATGAATAATCCCTCAATATAAATATCTCTCACTTATTTAAA", 0.171),
]

----------
Reported cleaved RNA product abundance is given for each of the following sequences.
system: Bacillus subtilis; test: cleaved RNA product abundance (RNA/gDNA barcode ratio) relative to median wild-type variant (ratio to wild type); higher = more accumulation of the downstream cleavage product; settings: experiment (reporter, strain, medium): exp 8a: truncated aprE reporter, strain BJT201 with 2% xylose (RNase J1 expressed); cleavage site: glnRA (positions -5 to +31 mutated)

# RECORD_SEQUENCE, cleaved RNA product abundance
data = [
    ("CGACATGTCCCGCTTCTTTCATTAATCCGTTAGCAACTGTTTTGATATATACATTTACCTTTTAAGAGGAGGAAT", 0.503),
    ("CGACATGTCCCGCTTCTTTCATTAATCCGTGAGCAACTGTTTTGCTATATACATTTACCATTTAAGAGGAGGAAT", 0.655),
    ("CGACATGTCCCGCTTCTTTCATTAATCCGTTAGCAACTGTTTAGCTATATATATTTACCTTTTAAGAGGAGGAAT", 0.416),
    ("CGACATGTCCCGCTTCTTTCATTAATCCTTTAGCAACTGTTTTGCTATATACATTTACCATTTAAGAGGAGGAAT", 0.837),
]

----------
tested on: Bacillus subtilis; experiment: cleaved RNA product abundance (RNA/gDNA barcode ratio) relative to median wild-type variant (ratio to wild type); higher = more accumulation of the downstream cleavage product; settings: experiment (reporter, strain, medium): exp 4a: truncated aprE reporter, strain BJT201 with 2% xylose (RNase J1 expressed); cleavage site: cggR-gapA (positions -7 to +36 mutated)
READOUT_NAME: cleaved RNA product abundance

# RECORD_SEQUENCE, OBS_VALUE
measured = [
    ("ACAGACGAAGGAGCCGCAAAGAAGTTATTAAGGCATGAATAAACCCTCAATATAAATATCTCTCACTTATTTAAA", 0.136),
    ("ACAGACGAAGGAGCCGCAAAAAAGTAATTAAGGGATGAATAATCCCTCAATATAAATATCTCTCACTTATTTAAA", 0.342),
    ("ACAGACGAAGGAGCCGCAAAGAAGTTATTAAGAGATGAATAATCCCTCAATATAAAAATCTCTCACTTATTTAAA", 0.181),
    ("ACAGACGAAGGAGCCGCAAAGAAGTTATTAACGGATGGATAATCCCTCAATATAAATATCTCTCACTTATTTAAA", 0.152),
    ("ACAGACGAAGGAGCCGCAAAGAAGTTATCAAGGGATGAATAATCGCTCAATATAAATATCTCTCACTTATTTAAA", 0.0908),
    ("ACAGACGAAGGAGCCGCAAAGAAGTTATTAAGGGATTAATAATCCCTCAATATAAACATCTCTCACTTATTTAAA", 0.803),
    ("ACAGACGAAGGAGCCGCAAAGAAGTTATTAAGGGATGAATAATCTCTAAATATAAATATCTCTCACTTATTTAAA", 0.558),
    ("ACAGACGAAGGAGCCGCAAAGAAGTTATTAAGGGATGAATAATCCCTCAGTATATATATCTCTCACTTATTTAAA", 0.242),
    ("ACAGACGAAGGAGCCGCAAAGAAGTTATTAAGGGATCAATAATCCCACAATATAAATATCTCTCACTTATTTAAA", 0.208),
    ("ACAGACGAAGGAGCCGCAAAGTAGTTATTAAGGGATGAATAATCCCTGAATATAAATATCTCTCACTTATTTAAA", 0.524),
    ("ACAGACGAAGGAGCCGCAAAGAAGTTATTAAGGGATGAATAATCCTTAAATATAAATATCTCTCACTTATTTAAA", 0.581),
    ("ACAGACGAAGGAGCCGCAACGAAGTTATTAAGGGATGTATAATCCCTCAATATAAATATCTCTCACTTATTTAAA", 0.656),
    ("ACAGACGAAGGAGCCGCAAGGAAGTTATTAACGGATGAATAATCCCTCAATATAAATATCTCTCACTTATTTAAA", 0.121),
    ("ACAGACGAAGGAGCCGCAAAGAAGTTATTAAGGTATTAATAATCCCTCAATATAAATATCTCTCACTTATTTAAA", 0.169),
    ("ACAGACGAAGGAGCCGCAAAGAAGTTATTAAGGAATGAATAATTCCTCAATATAAATATCTCTCACTTATTTAAA", 0.872),
]

----------
Reported cleaved RNA product abundance is given for each of the following sequences.
system: Bacillus subtilis; experiment: cleaved RNA product abundance (RNA/gDNA barcode ratio) relative to median wild-type variant (ratio to wild type); higher = more accumulation of the downstream cleavage product; conditions: experiment (reporter, strain, medium): exp 8a: truncated aprE reporter, strain BJT201 with 2% xylose (RNase J1 expressed); cleavage site: glnRA (positions -5 to +31 mutated)

# RECORD_SEQUENCE, TARGET_ENTITY, cleaved RNA product abundance
records = [
    ("CGACATGTCCCGCTTCTTTCATTAATGCGTTAGCAACTGTTTTGCTATATAGATTTACCCTTTAAGAGGAGGAAT", "Bacillus subtilis", 0.761),
    ("CGACATGTCCCGCTTCTTTCATTAATCCGGTAGCAACTGTTTTGCTAGATACATTTACCTTTTAAGAGGAGGAAT", "Bacillus subtilis", 0.545),
    ("CGACATGTCCCGCTTCTTTCATTAATCCGTTAGAAACTGTTTTGCTATATACTTTTACCTTTTAAGAGGAGGAAT", "Bacillus subtilis", 0.217),
    ("CGACATGTCCCGCTTCTTTCATTAATCCGTTAGCAACTGTTTTGCTATATACATTTACAATTTAAGAGGAGGAAT", "Bacillus subtilis", 1.08),
    ("CGACATGTCCCGCTTCTTTCATTAATTCGTTAGCAACTGTTTTGCTATATACACTTACCTTTTAAGAGGAGGAAT", "Bacillus subtilis", 0.629),
    ("CGACATGTCCCGCTTCTTTCATTAATCTTTTAGCAACTGTTTTACTATATACATTTACCTTTTAAGAGGAGGAAT", "Bacillus subtilis", 0.94),
    ("CGACATGTCCCGCTTCTTTCATTAATCAGTTAGCAACTGTTGTGCTATATACATTTACCTTTTAAGAGGAGGAAT", "Bacillus subtilis", 0.354),
    ("CGACATGTCCCGCTTCTTTCATTAATCCGTGATCAACTGTTTTGCTATATACATTTACCTTTTAAGAGGAGGAAT", "Bacillus subtilis", 0.346),
    ("CGACATGTCCCGCTTCTTTCATTATTCCGTTAGCAACTGTTTTGCCATATACATTTACCTTTTAAGAGGAGGAAT", "Bacillus subtilis", 0.346),
    ("CGACATGTCCCGCTTCTTTCATTAATCCGTTACCAACTGTTTTGCTATATACATTTACCTTTTAAGAGGAGGAAT", "Bacillus subtilis", 0.255),
    ("CGACATGTCCCGCTTCTTTCATTAATCCGACAGCAACTGTTTTGCTATATACATTTACCTTTTAAGAGGAGGAAT", "Bacillus subtilis", 0.335),
    ("CGACATGTCCCGCTTCTTTCATTATTCCGTTATCAACTGTTTTGATATATACATTTACCTTTTAAGAGGAGGAAT", "Bacillus subtilis", 0.385),
    ("CGACATGTCCCGCTTCTTTCATTAATCCGTTAGCTACTGTTTTGCTATATACATTTAACTTTTAAGAGGAGGAAT", "Bacillus subtilis", 0.621),
    ("CGACATGTCCCGCTTCTTTCATTAATCCGTTATCAACTGTTTTGCCATATACATTTACCTTTTAAGAGGAGGAAT", "Bacillus subtilis", 0.145),
    ("CGACATGTCCCGCTTCTTTCATTATTCCGTTAGCAACTGTTTTCATAAATACATTTACCTTTTAAGAGGAGGAAT", "Bacillus subtilis", 0.375),
]
